system: U2OS; test: Incucyte cell viability with U2OS; assay type: toxicity, cell-based; conditions: human, 0 h, 10 µM, compound concentration 10 uM, replicate number 2, timepoint 0 hours; also: filed as whole numbers so only -1 and 0 and 1 occur
Metric Name: Growth Rate
Number, no unit, nothing else.

GET /values?readout=Growth Rate&item= N#Cc1cccc(C(=O)Nc2cc(-c3ccccc3)nn2-c2ccccc2)c1
0

GET /values?readout=Growth Rate&item= CC[C@@H]1CN(C(=O)NCC(F)(F)F)C[C@@H]1c1cnc2cnc3[nH]ccc3n12 [UPADACITINIB]
1

GET /values?readout=Growth Rate&item= Cc1c(Nc2ccc(S(=O)(=O)N3CCN(C)CC3)cc2F)nc2ccc(-c3cnn(C4CC4)c3)cn2c1=O
0

GET /values?readout=Growth Rate&item= CC[C@@H]1C(=O)N(C)c2cnc(Nc3ccc(C(=O)N[C@H]4CC[C@H](N5CCN(CC6CC6)CC5)CC4)cc3OC)nc2N1C(C)C [VOLASERTIB]
0

----------
test system: HEK-293T; assay: Multiplex assay against HEK293T; assay type: toxicity, cell-based; conditions: human, 48 h, 1 µM, compound concentration 1 uM, replicate 1
param class (str): category from Population Hoechst High Intensity Objects (%); see ranges 0 (below 10%), 1 (10% to below 20%), 2 (20% or more)

In plain terms, what class is N#Cc1cccc(C(=O)Nc2cc(-c3ccccc3)nn2-c2ccccc2)c1 ?
1

In plain terms, what class is Cl.NC[C@@H]1O[C@H](C23CC4CC(CC(C4)C2)C3)Cc2c1ccc(O)c2O ?
0

In plain terms, what class is N#CCNC(=O)c1ccc(-c2ccnc(Nc3ccc(N4CCOCC4)cc3)n2)cc1 ?
0

In plain terms, what class is CC(Cc1ccc(O)c(O)c1)C(C)Cc1ccc(O)c(O)c1 (stereo not drawn) [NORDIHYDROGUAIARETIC ACID] ?
0

In plain terms, what class is CC(C)C[C@H](NC(=O)[C@H](Cc1ccccc1)NC(=O)CNC(=O)CNC(=O)[C@@H](N)Cc1ccc(O)cc1)C(=O)O ?
2

In plain terms, what class is CC(C)c1cc(Nc2nc(N3CCC[C@H](N)C3)ncc2C(N)=O)cc(C(C)C)n1 ?
1

In plain terms, what class is CCCCCNC(=N)N/N=C/c1c[nH]c2ccc(OC)cc12.O=C(O)/C=C\C(=O)O [TEGASEROD MALEATE] ?
0

In plain terms, what class is Cc1c(P(=S)(c2ccccc2)c2ccccc2)n2ccccc2[n+]1C/C=C/c1ccccc1.[Br-] ?
2

In plain terms, what class is CCCCN(CC)c1nc(C)nc2c1c(C)cn2-c1c(C)cc(C)cc1C.Cl ?
1

In plain terms, what class is CN1C(=O)[C@@H](NC(=O)c2cc3ccccc3[nH]2)N=C(c2ccccc2)c2ccccc21 [DEVAZEPIDE] ?
1

In plain terms, what class is C=CC(=O)Nc1cc(-n2c(=O)ccc3cnc4ccc(-c5ccc(NS(C)(=O)=O)cc5)cc4c32)ccc1C ?
2

In plain terms, what class is CC(C)[C@H](CO)Nc1nc(Nc2cccc(Cl)c2)c2ncn(C(C)C)c2n1 ?
1

In plain terms, what class is CN(c1cc(C(F)(F)F)nc(OCCC(=O)O)n1)c1cccc2c1CCC2 ?
1

In plain terms, what class is CCCc1cc(C)[nH]c(=O)c1CNC(=O)c1cc(-c2ccc(N3CCN(C(C)C)CC3)nc2)cc2c1cnn2C(C)C ?
0

In plain terms, what class is Cc1ccc(S(=O)(=O)NC2c3ccccc3Oc3ccccc32)cc1 ?
1

In plain terms, what class is C[C@@H](Oc1cc(-n2cnc3ccc(CN4CCN(C)CC4)cc32)sc1C(N)=O)c1ccccc1C(F)(F)F ?
2

In plain terms, what class is Oc1cccc(-c2nc(N3CCOCC3)c3oc4ncccc4c3n2)c1 ?
2

Source of measurements: ChEMBL document CHEMBL4689842
